// provenance: patent US4990520A

# TARGET: muscarinic cholinergic receptor
# MEASUREMENT_PROTOCOL: [3H] Quinuclinyl Benzilate (3H-QNB) Binding Assay
# Parameters: species or system rat
# CONDITION_INFO: pH 7.4
MEASUREMENT_KIND: IC50 (µM)

C[N+](C)(C)CC#Cc1cscn1    119
C[N+](C)(C)CC#Cc1nccs1    123

====

# TARGET: high affinity agonist conformation of the muscarinic cholinergic receptor
# MEASUREMENT_PROTOCOL: [3H]-Cis-methyldioxolane (3H-CD) Binding Assay (High Affinity)
# CONDITION_INFO: rat cerebral cortex, 1.0 nM 3H-CD, 25° C., 120 minutes, pH 7.4
pIC50: −log10 of the molar value.
MEASUREMENT_KIND: pIC50

C[N+](C)(C)CC#Cc1cncs1    6.56
C(#Cc1nccs1)CN1CCCC1    5.85
C(#Cc1cscn1)CN1CCCCC1 [1-[3-(4-Thiazolyl)-2-propynyl]piperidine]    4.55
C(#Cc1cncs1)CN1CCCC1 [5-[3-(1-Pyrrolidinyl)-1-propynyl]thiazole]    6.61
C(#Cc1nccs1)CN1CCCCC1 [1-[3-(2-Thiazolyl)-2-propynyl]piperidine]    4.99
CN(C)C/C(Cl)=C\c1nccs1    5.97
CN(C)CC#Cc1cscn1 [--N, --N-Dimethyl-3-(4-thiazolyl)-2-propyn-1-amine]    4.89
C[N+](C)(C)CC#Cc1cscn1    5.84
C[N+](C)(C)CC#Cc1nccs1    6.17
CN(C)CC#Cc1cscn1 [--N, --N-Dimethyl-3-(4-thiazoyl)-2-propyn-1-amine]    4.72
C(#Cc1cncs1)CN1CCCC1 [5-[3-(1-Pyrrolidinyl)-1-propynyl] thiazole]    5.33

====

# TARGET: muscarinic cholinergic receptor
# MEASUREMENT_PROTOCOL: [3H] Quinuclinyl Benzilate (3H-QNB) Binding Assay
# Design: species or system rat
# CONDITION_INFO: rat cerebral cortex, 0.25 nM 3H-QNB, 25° C., 120 minutes, pH 7.4; hydrochloride
pIC50: −log10 of the molar value. Counter-ions that a name gives are not always drawn.
Attribute: pIC50
MEASUREMENT_KIND: pIC50

CN(C)CC#Cc1cncs1 [hydrochloride]    3.32
C(#Cc1cscn1)CN1CCCCC1 [hydrochloride]    3.94

====

# TARGET: high affinity agonist conformation of the muscarinic cholinergic receptor
# MEASUREMENT_PROTOCOL: [3H]-Cis-methyldioxolane (3H-CD) Binding Assay (High Affinity)
# CONDITION_INFO: rat cerebral cortex, 1.0 nM 3H-CD, 25° C., 120 minutes, pH 7.4
pIC50: −log10 of the molar value. Counter-ions that a name gives are not always drawn.
// reported pIC50 for each item listed
MEASUREMENT_KIND: pIC50

CN(C)CC#Cc1cncs1    5.47
Cl/C(=C/c1nccs1)CN1CCCCC1    5.18
C(#Cc1cncs1)CN1CCCCC1 [hydrochloride]    6.18
CN(C)CC#Cc1nccs1    5.00
C(#Cc1cscn1)CN1CCCC1    5.40
Cl/C(=C/c1nccs1)CN1CCCC1    5.65
